test system: HFF; assay: cell viability relative to DMSO control; higher = less cytotoxic; conditions: 1 µM; 72 h
Experimental readout: cell viability (%)
Give bare numbers, in %.

Answered cases to consult:
Compound: CCc1cc(CCCOc2c(C)cc(-c3noc(C(F)(F)F)n3)cc2C)on1
Test target: HFF
Experimental readout: cell viability
Numeric result: 69.3
//
Compound: OCCC#Cc1nc(-c2ccc(F)cc2)c(-c2ccncc2)n1CCCc1ccccc1
Test target: HFF
Experimental readout: cell viability
Numeric result: 81.7
//
Compound: COc1cc(NCc2ccc3nc(N)nc(N)c3c2C)cc(OC)c1OC
Test target: HFF
Experimental readout: cell viability
Numeric result: 63.7
//
Compound: COc1ccc2c(c1)cc(CNC(=O)c1cc3ccccc3o1)n2CC(=O)O
Test target: HFF
Experimental readout: cell viability
Numeric result: 62.5
//
Compound: Oc1c(C(Nc2ccccn2)c2ccccc2)ccc2cccnc12 (stereo not given)
Test target: HFF
Experimental readout: cell viability
Numeric result: 69.9

Need cell viability for each of these compounds.
1. CC(C)(C)c1ccc(C(Cn2cccc(C(F)(F)F)c2=O)NC2Cc3ccccc3C2)cc1 (stereo not given)
2. CCN(CC)S(=O)(=O)c1ccc(Cl)c(C(=O)Nc2sc3c(c2C#N)CCCC3)c1
3. COc1ccc(SC(=O)N[C@H](CCC(=O)O)C(=O)O)cc1
4. CCc1oc2ccccc2c1C(=O)c1ccc(O)cc1

**A:**
[67.8, 60.2, 59.7, 71.1]

Need cell viability for each of these compounds.
1. Clc1ccc(Cn2c(CN3CCCC3)nc3ccccc32)cc1
2. CSC[C@H]1CN(Cc2c[nH]c3c(N)ncnc23)C[C@@H]1O
3. CCN(CC)CCn1c(=N)n(CC(O)COc2ccc(Cl)cc2Cl)c2ccccc21 (stereo not given)
4. COC1CC2CCC(C)C(O)(O2)C(=O)C(=O)N2CCCCC2C(=O)OC(C(C)CC2CCC(OCCO)C(OC)C2)CC(=O)C(C)/C=C(\C)C(O)C(OC)C(=O)C(C)CC(C)/C=C/C=C/C=C/1C (stereo not given)
5. CCCC1(C2CC2)c2cc(Cl)ccc2NC(=O)N1C (stereo not given)

**A:**
1: 67.7; 2: 61.5; 3: 60.7; 4: 60.8; 5: 62.3

Need cell viability for each of these compounds.
1. COc1cc(C(C(=O)NC2CCCCC2)N(C(=O)Cc2c[nH]c3ccccc23)c2ccc(C(C)C)cc2)cc(OC)c1OC (stereo not given)
2. CC(C)(C)OC(=O)NCc1ccc(C(=O)N[C@H]2CCOC2=O)cc1
3. CONC(=N)c1ccc(-c2ccc(-c3ccc(C(=N)NOC)cc3)o2)cc1
4. Clc1cccc(-c2nnc(-c3ccccc3)o2)c1
5. [N-]=[N+]=N[C@H]1C[C@H](n2ccc(=O)[nH]c2=O)O[C@@H]1CO
6. COc1c(NC(=O)[C@H]2CC[C@@H](COc3ccc([N+](=O)[O-])cc3)CC2)c(F)cc2c(=O)c(C(=O)O)cn(C3CC3)c12

**A:**
1: 66.3; 2: 65.7; 3: 63.9; 4: 64.1; 5: 69.1; 6: 62.8

====

Give cell viability for every item shown.
test system: HFF; assay: cell viability relative to DMSO control; higher = less cytotoxic; conditions: 1 µM; 72 h
Numbers only, in %.

Answered cases to consult:
Molecule: O=C(Cc1ccccc1F)Nc1nc2ccccc2[nH]1
Numeric result: 69.7
--
Molecule: Nc1cc(N)c2nc(-c3ccccc3)c(Nc3ccc(F)cc3)nc2c1
Numeric result: 80.1
--
Molecule: O=c1oc2ccc(Br)cc2cc1CSc1ncc[nH]1
Numeric result: 74.7

Need cell viability for each of these molecules.
1. Cc1cccc(C)c1C(=O)Nc1nc(-c2ccccn2)cc2ccccc12
2. Oc1cccc(C(Nc2nccs2)c2ccc3cccnc3c2O)c1 (stereo not drawn)
3. Nc1ccc2oc(=O)ccc2c1I
4. Cc1cc(C)n2nc(C(=O)NS(=O)(=O)c3c(C)cccc3OC(F)(F)F)nc2n1
5. CCC(C)(C)c1ccc(CC(C)CN2C[C@@H](C)O[C@@H](C)C2)cc1 (stereo partly drawn)
6. CCCCc1ccc(-c2nc(C)c(C(=O)OC)s2)cc1
7. CC(=N)N1CC[C@H](SC2=C(C(=O)O)N3C(=O)[C@@H]([C@@H](C)O)[C@H]3C2)C1
8. C[C@H](Cn1cnc2c(N)ncnc21)OCP(=O)(O)O

**A:**
1. 74.7
2. 72
3. 69.6
4. 72.2
5. 65
6. 63.9
7. 63.8
8. 58.1

Need cell viability for each of these molecules.
1. CCC(C)n1ncn(-c2ccc(N3CCN(c4ccc(OCC5COC(Cn6cncn6)(c6ccc(Cl)cc6Cl)O5)cc4)CC3)cc2)c1=O (stereo not drawn)
2. O=C(Nc1nnc(-c2ccc(Cl)cc2)o1)c1ccc(F)cc1
3. O=C(NC(=O)N1CCCc2ccccc21)c1ccc(Cl)cc1Cl
4. Cc1cc(C2CCCCC2)n(O)c(=O)c1
5. CC(C)(C)c1ccc(OCCn2nc(C(=O)O)c3ccccc3c2=O)cc1
6. Cc1[nH]c2ccccc2c1CCNCc1ccc(/C=C/C(=O)NO)cc1
7. COc1cc(C2C3=C(CC(C)(C)CC3=O)Nc3ccccc3N2C(C)=O)ccc1OCc1ccccc1 (stereo not drawn)

**A:**
1: 78.2; 2: 65.9; 3: 70.2; 4: 78.2; 5: 70; 6: 19; 7: 67.1

Sourced from the supplement of paper PMC10941209
